target: Tau; experiment: rat primary cortical neurons, FLIPR, 25 uM ASO
Bases are written 5' to 3'; sugars and linkages follow in the same order, as letters with counts (s phosphorothioate, o phosphodiester; PS: all linkages phosphorothioate). The collection does not say whether C is 5-methylated. l = locked nucleic acid (LNA); d = 2'-deoxy (DNA)
VALUE TYPE: calcium oscillation score

> print(dat)
                            sequence.record     recorded.value
1  ACTCAACATTACCCTTAAA (sugars l4 d11 l4, PS)  82.4 % of control
2   TGTCATCGCTTCCAGT (sugars l3 d10 l3, PS)    88 % of control
3  CCCTCCCTTTAATGCCAGGC (sugars l3 d14 l3, PS)  6.04 % of control
4  ATTCATTTTACTTTACTTTT (sugars l4 d12 l4, PS)  88.6 % of control
5  ACCACCTCATTAAGATC (sugars l4 d11 l2, PS)  58.3 % of control

* * *

experiment: rat primary cortical neurons, FLIPR, 25 uM ASO
Bases are written 5' to 3'; sugars and linkages follow in the same order, as letters with counts (s phosphorothioate, o phosphodiester; PS: all linkages phosphorothioate). The collection does not say whether C is 5-methylated. l = locked nucleic acid (LNA); d = 2'-deoxy (DNA)
calcium oscillation score values, listed per item
VALUE TYPE: calcium oscillation score

> print(dat)
                            sequence.record                 value.type     recorded.value
1  TCCACTAACCAATATAAC (sugars l3 d12 l3, PS)  calcium oscillation score  76.5 % of control
2  CAAATCATCCATCTATAAAC (sugars l4 d12 l4, PS)  calcium oscillation score  88.8 % of control
3  AAATCTATAATAACCACCAC (sugars l3 d14 l3, PS)  calcium oscillation score  80.2 % of control
4  CAACCAACAATACTTTAAAC (sugars l4 d12 l4, PS)  calcium oscillation score  85.6 % of control
5  CACAATCTAACTATTAAC (sugars l3 d12 l3, PS)  calcium oscillation score  76.5 % of control

* * *

calcium oscillation score values, listed per item
target: Tau; experiment: rat primary cortical neurons, FLIPR, 25 uM ASO
Bases are written 5' to 3'; sugars and linkages follow in the same order, as letters with counts (s phosphorothioate, o phosphodiester; PS: all linkages phosphorothioate). The collection does not say whether C is 5-methylated. l = locked nucleic acid (LNA); d = 2'-deoxy (DNA)
VALUE TYPE: calcium oscillation score

> print(dat)
                             sequence.record  target.or.test.system                 value.type     recorded.value
 1  AAAAGTCCATTCCCTCC (sugars l2 d12 l3, PS)                    Tau  calcium oscillation score    64 % of control
 2  TCTTAGCATCAGAGGTTTCA (sugars l3 d14 l3, PS)                    Tau  calcium oscillation score  18.5 % of control
 3  GGGAGATTCTTTCAGGCCAG (sugars l3 d14 l3, PS)                    Tau  calcium oscillation score  48.1 % of control
 4    TATCATATCCTAAGCA (sugars l3 d9 l4, PS)                    Tau  calcium oscillation score    76 % of control
 5    TATCTGCAAACTCAAC (sugars l4 d8 l4, PS)                    Tau  calcium oscillation score  98.9 % of control
 6   TTTCAACTCTTAGCATC (sugars l4 d9 l4, PS)                    Tau  calcium oscillation score  70.8 % of control
 7  AAACCAACTCAACATTACCC (sugars l3 d15 l2, PS)                    Tau  calcium oscillation score  94.3 % of control
 8  ATTGCAACTTTAACTCC (sugars l3 d10 l4, PS)                    Tau  calcium oscillation score  62.9 % of control
 9  ACTCTTAGCATCCACTT (sugars l4 d11 l2, PS)                    Tau  calcium oscillation score  40.6 % of control
10  CAAAACATTCTCACCAAACC (sugars l4 d14 l2, PS)                    Tau  calcium oscillation score  84.8 % of control
11   TCTTGGCGGAAGACGG (sugars l3 d10 l3, PS)                    Tau  calcium oscillation score   100 % of control
12     AGTTTGTGCAAGGTC (sugars l3 d9 l3, PS)                    Tau  calcium oscillation score     0 % of control
13  TAATTCACACAACAAACTA (sugars l4 d11 l4, PS)                    Tau  calcium oscillation score  88.7 % of control
14  TGTCCTCACTTTACACAT (sugars l4 d12 l2, PS)                    Tau  calcium oscillation score  39.8 % of control
15  TCCATTTTCTGACTCTA (sugars l3 d12 l2, PS)                    Tau  calcium oscillation score  40.4 % of control
16  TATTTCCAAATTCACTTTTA (sugars l4 d11 l5, PS)                    Tau  calcium oscillation score   172 % of control

* * *

calcium oscillation score values, listed per item
target: Tau; test: rat primary cortical neurons, FLIPR, 25 uM ASO
Bases are written 5' to 3'; sugars and linkages follow in the same order, as letters with counts (s phosphorothioate, o phosphodiester; PS: all linkages phosphorothioate). The collection does not say whether C is 5-methylated. l = locked nucleic acid (LNA); d = 2'-deoxy (DNA)
VALUE TYPE: calcium oscillation score

> print(dat)
                            sequence.record     recorded.value
1  GCCACACTTGGAGGTCACCT (sugars l3 d14 l3, PS)  4.52 % of control
2  CGCCCCACTTTTAATTA (sugars l2 d12 l3, PS)  77.2 % of control
3  GCTGGGTGGTGTCTTTGGAG (sugars l3 d14 l3, PS)     0 % of control

* * *

target: Tau; assay: rat primary cortical neurons, FLIPR, 25 uM ASO
Bases are written 5' to 3'; sugars and linkages follow in the same order, as letters with counts (s phosphorothioate, o phosphodiester; PS: all linkages phosphorothioate). The collection does not say whether C is 5-methylated. l = locked nucleic acid (LNA); d = 2'-deoxy (DNA)
calcium oscillation score values, listed per item
VALUE TYPE: calcium oscillation score

> print(dat)
                            sequence.record     recorded.value
1  CTAATATCCTTGCTATC (sugars l3 d10 l4, PS)  55.7 % of control
2    ATCCTTCTAAGTACAA (sugars l4 d8 l4, PS)  85.6 % of control
3      CCCTAAAGTCCCAG (sugars l3 d8 l3, PS)  51.4 % of control
4   TTCCTCAGAAGGCATT (sugars l3 d10 l3, PS)  36.9 % of control
5   TTCCATCTTACTAATAG (sugars l4 d9 l4, PS)  49.2 % of control

* * *

calcium oscillation score values, listed per item
target: Tau; experiment: rat primary cortical neurons, FLIPR, 25 uM ASO
Bases are written 5' to 3'; sugars and linkages follow in the same order, as letters with counts (s phosphorothioate, o phosphodiester; PS: all linkages phosphorothioate). The collection does not say whether C is 5-methylated. l = locked nucleic acid (LNA); d = 2'-deoxy (DNA)
VALUE TYPE: calcium oscillation score

> print(dat)
                             sequence.record  target.or.test.system                 value.type     recorded.value
 1  ACCAATTATCTTTAAATTCT (sugars l4 d13 l3, PS)                    Tau  calcium oscillation score    77 % of control
 2  GTAGACTATTTGCACACTGC (sugars l3 d14 l3, PS)                    Tau  calcium oscillation score  11.1 % of control
 3     ATGATTGTGGGCTTA (sugars l3 d9 l3, PS)                    Tau  calcium oscillation score  7.83 % of control
 4  CTTACAACCAACACTGA (sugars l3 d10 l4, PS)                    Tau  calcium oscillation score  49.7 % of control
 5  ATTCCTTTCAATGACCA (sugars l4 d11 l2, PS)                    Tau  calcium oscillation score  49.7 % of control
 6   CTGGCCACCTCCTGGT (sugars l3 d10 l3, PS)                    Tau  calcium oscillation score  16.1 % of control
 7  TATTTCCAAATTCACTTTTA (sugars l5 d11 l4, PS)                    Tau  calcium oscillation score   121 % of control
 8   AACCACTCTAACATCTT (sugars l4 d9 l4, PS)                    Tau  calcium oscillation score  88.3 % of control
 9     GTCCTAATCCTGTGC (sugars l3 d9 l3, PS)                    Tau  calcium oscillation score  36.5 % of control
10  CATAATCCTACCACCAG (sugars l2 d12 l3, PS)                    Tau  calcium oscillation score  61.3 % of control
11   TGGCTTTGGCGTTCTC (sugars l3 d10 l3, PS)                    Tau  calcium oscillation score  28.7 % of control
12  TTTTAATTAAATTTCTCCCT (sugars l4 d13 l3, PS)                    Tau  calcium oscillation score   104 % of control
13  CAGCCTACTTTATTCCCT (sugars l2 d14 l2, PS)                    Tau  calcium oscillation score  82.2 % of control
14  TTTCCCCATTTATCCTT (sugars l4 d11 l2, PS)                    Tau  calcium oscillation score  87.4 % of control
15  TGGCCATCTTATGCTGACCA (sugars l3 d14 l3, PS)                    Tau  calcium oscillation score  29.4 % of control
16   CTTCCAAGACTTCTCC (sugars l4 d10 l2, PS)                    Tau  calcium oscillation score  77.2 % of control
17  CCGAACTGCGAGGAGCAGCT (sugars l3 d14 l3, PS)                    Tau  calcium oscillation score  38.9 % of control
18  TCTAATTTAGTCACCAT (sugars l4 d10 l3, PS)                    Tau  calcium oscillation score    96 % of control
19  TCAGGTCAACTGGTTTGTAG (sugars l3 d14 l3, PS)                    Tau  calcium oscillation score     0 % of control
20  TTGGGTGGAGTACGGACCAC (sugars l3 d14 l3, PS)                    Tau  calcium oscillation score     0 % of control
21    AATAAGAAAGGAACGC (sugars l5 d6 l5, PS)                    Tau  calcium oscillation score   113 % of control
22  TCAGCTTGTGGGTTTCAATC (sugars l3 d14 l3, PS)                    Tau  calcium oscillation score  13.3 % of control
23   AACTGCGAGGAGCAGC (sugars l3 d10 l3, PS)                    Tau  calcium oscillation score  25.9 % of control
24      GTGATGCAGGAGTT (sugars l3 d8 l3, PS)                    Tau  calcium oscillation score  64.8 % of control
25  TTTTACCAATTTGCCTA (sugars l2 d11 l4, PS)                    Tau  calcium oscillation score  46.2 % of control
26  TCAAATCAATTCTCATTTCA (sugars l3 d13 l4, PS)                    Tau  calcium oscillation score    62 % of control
27  ACCACTGGCGACTTGTACAC (sugars l3 d14 l3, PS)                    Tau  calcium oscillation score  5.18 % of control
28   CTAAAGTCCCAGGTCT (sugars l3 d10 l3, PS)                    Tau  calcium oscillation score  59.2 % of control
29  AGCCTCTAGCCACATGGACC (sugars l3 d14 l3, PS)                    Tau  calcium oscillation score  16.1 % of control
30   AATTTAGTCACCATCAC (sugars l4 d9 l4, PS)                    Tau  calcium oscillation score  79.1 % of control
31   AGCCACTGTTGCCACA (sugars l2 d12 l2, PS)                    Tau  calcium oscillation score  39.3 % of control
32  CCACCTCCTGGTTTATGATG (sugars l3 d14 l3, PS)                    Tau  calcium oscillation score  19.4 % of control
33  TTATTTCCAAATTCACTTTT (sugars ldlllddddddddddlldll, PS)                    Tau  calcium oscillation score  70.3 % of control
34  TTTATTTCCAAATTCACTTT (sugars l5 d11 l4, PS)                    Tau  calcium oscillation score   115 % of control
35    AATAAGAAAGGAACGC (sugars l4 d8 l4, PS)                    Tau  calcium oscillation score  5.95 % of control
36  CACTTTCCTAATTCCCAA (sugars l2 d13 l3, PS)                    Tau  calcium oscillation score  72.7 % of control
